- study-target: holo-BpsA (Streptomyces lavendulae, UniProt Q1MWN4)
- Construct: made in house; host or cells: E. coli BL21(DE3) ΔentD
- Sequence (Q1MWN4 whole entry): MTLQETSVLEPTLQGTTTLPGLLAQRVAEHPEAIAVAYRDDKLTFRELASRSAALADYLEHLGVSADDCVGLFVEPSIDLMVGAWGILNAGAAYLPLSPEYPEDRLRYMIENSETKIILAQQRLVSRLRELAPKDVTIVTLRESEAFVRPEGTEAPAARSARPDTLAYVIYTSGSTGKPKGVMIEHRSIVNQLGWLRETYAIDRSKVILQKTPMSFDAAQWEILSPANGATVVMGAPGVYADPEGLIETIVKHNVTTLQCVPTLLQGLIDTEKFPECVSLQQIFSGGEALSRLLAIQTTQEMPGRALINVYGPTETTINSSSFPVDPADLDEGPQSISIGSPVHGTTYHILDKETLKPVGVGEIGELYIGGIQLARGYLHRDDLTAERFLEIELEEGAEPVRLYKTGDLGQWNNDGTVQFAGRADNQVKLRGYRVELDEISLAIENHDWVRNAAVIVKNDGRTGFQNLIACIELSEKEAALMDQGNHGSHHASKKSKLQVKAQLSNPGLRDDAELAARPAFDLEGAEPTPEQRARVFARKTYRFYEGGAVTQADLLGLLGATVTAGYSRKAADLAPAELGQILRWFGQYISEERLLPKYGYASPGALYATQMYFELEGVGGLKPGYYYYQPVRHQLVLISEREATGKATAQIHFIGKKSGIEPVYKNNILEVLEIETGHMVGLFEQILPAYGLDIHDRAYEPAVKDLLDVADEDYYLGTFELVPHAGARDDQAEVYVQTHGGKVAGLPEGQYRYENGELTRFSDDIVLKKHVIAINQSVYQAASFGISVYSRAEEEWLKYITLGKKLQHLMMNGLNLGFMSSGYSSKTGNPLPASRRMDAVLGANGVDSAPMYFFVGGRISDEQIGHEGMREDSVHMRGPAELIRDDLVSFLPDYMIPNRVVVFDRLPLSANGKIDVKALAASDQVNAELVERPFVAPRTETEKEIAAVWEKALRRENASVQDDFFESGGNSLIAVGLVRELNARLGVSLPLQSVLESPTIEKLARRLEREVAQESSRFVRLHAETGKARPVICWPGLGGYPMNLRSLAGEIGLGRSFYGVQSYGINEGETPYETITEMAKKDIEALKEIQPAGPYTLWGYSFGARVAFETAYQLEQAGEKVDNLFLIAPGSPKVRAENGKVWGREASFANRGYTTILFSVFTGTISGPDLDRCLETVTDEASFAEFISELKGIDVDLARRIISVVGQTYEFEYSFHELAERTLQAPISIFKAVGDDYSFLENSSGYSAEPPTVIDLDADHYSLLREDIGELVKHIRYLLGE
- assay-comment: Counter-screen against pre-activated holo-BpsA (indigoidine synthesis)
- Format: biochemical
- setup-conditions: re-screen at higher concentration of 40 µM

compound | Inhibition of holo-BpsA
NC(Cc1cc(O)c(O)cc1O)C(=O)O (racemic) [6-Hydroxy-DL-DOPA] | less than 15%
O=Nc1ccc2oc(=O)ccc2c1 [6-Nitroso-1,2-benzopyrone] | less than 15%
CCCCCCCCCCC/C=C\C(C)(C)/C=C\CCCC(=O)O [7,7-Dimethyl-(5z,8z)-eicosadienoic acid] | less than 15%

---

- study-target: PptT (Mycobacterium tuberculosis, UniProt O33336)
- Sequence (O33336 whole entry): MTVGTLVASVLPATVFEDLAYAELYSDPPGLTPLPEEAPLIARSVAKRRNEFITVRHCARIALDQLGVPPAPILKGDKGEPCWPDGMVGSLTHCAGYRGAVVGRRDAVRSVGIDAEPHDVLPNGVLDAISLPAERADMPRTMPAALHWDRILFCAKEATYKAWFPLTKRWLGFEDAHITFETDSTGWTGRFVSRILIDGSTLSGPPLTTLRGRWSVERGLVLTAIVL
- assay-comment: LOPAC1280 single-point BpsA (indigoidine) end-point screen for PptT inhibitors
- Format: biochemical
- setup-conditions: single concentration (20 µM per Figure S4); 0.4 µM PptT, 0.6 µM apo-BpsA, 10 µM CoA; A590 relative to no-inhibitor positive controls
test-readout: activity at 20 µM (%)
Respond with the bare value in %.

Use these answered entries as a reference point.
compound | reading-unit | activity at 20 µM
CC(=O)c1c(O)c(C)c(O)c(Cc2c(O)c3c(c(C(=O)/C=C/c4ccccc4)c2O)OC(C)(C)C=C3)c1O | % | 48
CCN(CC)C(=S)SSC(=S)N(CC)CC | % | 9
O=C(O)C1=CC(=C(c2ccc(O)c(C(=O)O)c2)c2ccc(O)c(C(=O)O)c2)C=CC1=O | % | 32
Nc1c(S(=O)(=O)O)cc(Nc2ccc(Nc3nc(Cl)nc(Nc4cccc(S(=O)(=O)O)c4)n3)c(S(=O)(=O)O)c2)c2c1C(=O)c1ccccc1C2=O | % | 38

Then there is this compound:
[in] GET /values?readout=activity at 20 µM&item= C[n+]1cc2c3c(ccc2c2ccc4cc5c(cc4c21)OCO5)OCO3 [Sanguinarine chloride]
[out] 44
